measurement.notes: qHTS of pediatric cancer cell lines to identify multiple opportunities for drug repurposing: Primary screen for TC32 cells (AID 1347089); also: nearly all actives have a fitted effect of over 60% in size
particulars: TC32 Ewing sarcoma viability, CellTiter-Glo luminescence, 48 h; series mostly up to 45.8 µM
Inconclusive results are not listed. The source made the active and inactive calls. Calls follow the shape of the dose curve; as a rule, active = well fitted cell-killing curve with a large enough effect; inconclusive = small, poorly fitted or top-dose-only effect; inactive = flat fitted curve, though single readings scatter.
Classes used: true (1) (active), false (0) (inactive)

compound	assigned.category
CCCCCCCCCCCCCC(=O)N[C@H](CO)[C@H](O)c1ccc([N+](=O)[O-])cc1	false (0)
Cc1ccc2c(c1)c1c(n2CCc2ccc(C)nc2)CCN(C)C1	false (0)
Cn1cnc(-c2cc3nccc(Oc4ccc(NC(=S)NC(=O)Cc5ccccc5)cc4F)c3s2)c1	false (0)
CC1(C)CC(=O)c2c(C(F)(F)F)nn(-c3ccc(C(N)=O)c(NC4CCC(O)CC4)c3)c2C1 (centres undefined)	true (1)
CCC[C@H](Nc1nc(-c2ccc(NC(=O)NCC)c(OC)c2)ncc1C)c1cccnc1	true (1)
CCC=CC[C@H]1C(=O)CC[C@@H]1CC(=O)OC	false (0)
CN[C@@H]1[C@@H](O)[C@@H](O[C@@H]2[C@@H](O)[C@H](O[C@H]3O[C@H](CN)[C@@H](O)[C@H](O)[C@@H]3O)[C@@H](N)C[C@@H]2NC(=O)[C@@H](O)CN)OC[C@]1(C)O	false (0)
CCCCN(CCCC)CC(O)c1cc(Cl)cc2c1-c1ccc(Cl)cc1C2=Cc1ccc(Cl)cc1 (centres undefined)	false (0)
O=C(C=Cc1ccc(O)cc1)c1ccc(O)cc1O	false (0)
CCCCC[C@H](O)C=C[C@H]1[C@H](O)CC(=O)[C@H]1CCCCCCC(=O)O	false (0)
CN(C)CCOc1ccc(C(=C(CCCl)c2ccccc2)c2ccccc2)cc1	false (0)
O=C(Nc1cccc(C(F)(F)F)c1)Nc1cc(S(=O)(=O)NC2CC2)ccc1-c1ccsc1	false (0)
C[C@H](CCC(=O)O)[C@H]1CC[C@H]2[C@H]3[C@@H](CC[C@]12C)[C@@]1(C)CC[C@@H](O)C[C@H]1C[C@@H]3O	false (0)
COc1ccc2ccc(=O)oc2c1CC=C(C)C	false (0)
CC(C)CN(C[C@@H](O)[C@H](Cc1ccccc1)NC(=O)O[C@H]1CO[C@H]2OCC[C@H]21)S(=O)(=O)c1ccc(N)cc1	false (0)
C[C@H]1COC2=C1C(=O)C(=O)c1c2ccc2c1CCCC2(C)C	false (0)
C[C@@H]1CCO[C@H]2Cn3cc(C(=O)NCc4ccc(F)cc4F)c(=O)c(O)c3C(=O)N12	false (0)
CC1CCN(c2cc(N3CCN(C)CC3)ccc2NC(=O)c2cc(C#N)c[nH]2)CC1	false (0)
COc1cc(N2CCN(C)CC2)ccc1Nc1nc(N)c(C(=O)c2c(Cl)cccc2Cl)s1	false (0)

----------
measurement.notes: Quantitative High-Throughput drug screen in 47 multiple myeloma cell lines against the NCATS MIPE library collection: SKMM1_PLB cell viability assay (AID 1919863); also: potency is read from the fitted curve at half-maximal effect; nearly all actives have a fitted effect of over 35% in size
particulars: SKMM1 myeloma viability, CellTiter-Glo ATP, 48 h
Records with an inconclusive call do not appear. Calls of active or inactive are those of the source. Calls come from the whole dose curve; as a rule, active = well fitted cell-killing curve with a large enough effect; inconclusive = small, poorly fitted or top-dose-only effect, or effect the other way; inactive = no such curve, though single readings can be large or run the other way.

structure.smiles.string	Potency
Cc1[nH]c(C=C2C(=O)Nc3ccc(S(=O)(=O)N(C)c4cccc(Cl)c4)cc32)c(C)c1C(=O)N1CCN(C)CC1	20.9 µM (active)
COc1c(C)c2c(c(O)c1CC=C(C)CCC(=O)O)C(=O)OC2	5.26 µM (active)
O=C(c1ccc(C(=O)N2CCC(N3CCCC3)CC2)c(Nc2ccccc2)c1)N1CCC(N2CCCC2)CC1	6.62 µM (active)
CCc1cccc(CC)c1NC(=O)N1Cc2[nH]nc(NC(=O)c3ccc(N4CCN(C)CC4)cc3)c2C1	2.64 µM (active)
O=C(NC[C@H](O)CO)c1ccncc1Nc1ccc(I)cc1F	8.33 µM (active)
CO[C@H]1/C=C\O[C@@]2(C)Oc3c(C)c(O)c4c(O)c(c(C=NN5CCN(C6CCCC6)CC5)c(O)c4c3C2=O)NC(=O)C(C)=CC=C[C@H](C)[C@H](O)[C@@H](C)[C@@H](O)[C@@H](C)[C@H](OC(C)=O)[C@H]1C	7.43 µM (active)
CN[C@H]1[C@@H](O[C@@H]2[C@H](O[C@@H]3[C@@H](O)[C@@H](O)[C@@H](N=C(N)N)[C@@H](O)[C@@H]3N=C(N)N)O[C@H](C)[C@@]2(O)C=O)O[C@@H](CO)[C@@H](O)[C@H]1O	0.946 µM (active)

----------
System: OV90
measurement.notes: Primary qHTS to identify gynecologic anti-cancer compounds using libraries of approved drugs and bioactive compounds (AID 1345084); also: nearly all actives have a fitted effect of over 55% in size
particulars: Gynecologic cancer cell panel viability, ATPlite luminescence, 48 h; series mostly up to 57.5 µM
Inconclusive results are not listed. The source made the active and inactive calls. The call rests on the fitted dose curve; in most records, active means well fitted cell-killing curve with a large enough effect; inconclusive means small, poorly fitted or top-dose-only effect, or effect the other way; inactive means flat fitted curve, though single readings scatter.
endpoint.name: outcome

> print(dat)
                                    compound  test.result
 1  COc1nc(C)cnc1NS(=O)(=O)c1cccnc1-c1ccc(-c2nnco2)cc1     inactive
 2  C[C@@H](N)c1ccc(C(=O)Nc2ccnc3[nH]ccc23)cc1     inactive
 3  CN1C(=O)C(Cc2c[nH]c3ccccc23)NC1=S (stereo not given)     inactive
 4  Cc1csc(-c2nnc(Nc3ccc(Oc4ncccc4-c4ccnc(N)n4)cc3)c3ccccc23)c1     inactive
 5  CN(C)c1ccc(-c2nc3ncc(Cl)c(N4CCN(CC(=O)Nc5nccs5)CC4)c3[nH]2)cc1     inactive
 6  CCc1cccc(CC)c1NC(=O)N1Cc2[nH]nc(NC(=O)c3ccc(N4CCN(C)CC4)cc3)c2C1     inactive
 7  CC1CCN(c2cc(N3CCN(C)CC3)ccc2NC(=O)c2cc(C#N)c[nH]2)CC1     inactive
 8   COc1ccc(CCC(=O)Nc2nc3ccc(Cl)cc3s2)cc1OC     inactive
 9     O=C1C(c2c(O)[nH]c3ccccc23)=Nc2ccccc21     inactive
10  CCN1CCC(n2cc(CNc3cc(Cl)c4ncc(C#N)c(Nc5ccc(F)c(Cl)c5)c4c3)nn2)CC1     inactive

----------
measurement.notes: Quantitative High-Throughput drug screen in 47 multiple myeloma cell lines against the NCATS MIPE library collection: Delta47_JCRB cell viability assay (AID 1918925; also: nearly all actives have a fitted effect of over 45% in size)
particulars: Delta47 myeloma viability, CellTiter-Glo ATP, 48 h; series mostly up to 45.8 µM
Inconclusive results are not listed. Active and inactive are the calls of the source. Calls follow the shape of the dose curve; as a rule, active = well fitted cell-killing curve with a large enough effect; inconclusive = small, poorly fitted or top-dose-only effect, or effect the other way; inactive = no such curve, though single readings can be large or run the other way.
Classes used: active, inactive

> print(dat)
                                   compound  assigned.category
1  C[C@H]1[C@H](O)O[C@@H]2O[C@@]3(C)CC[C@@H]4[C@H](C)CC[C@@H]1[C@@]24OO3             active
2  CNc1nc(Nc2ccc(C(=O)N3CCOCC3)cc2OC)ncc1Cl           inactive
3  CC1=C(CC(=O)O)c2cc(F)ccc2C1=Cc1ccc(S(C)=O)cc1 (centres undefined)             active
4  COc1cc([C@H]2Oc3cc([C@H]4Oc5cc(O)cc(O)c5C(=O)[C@H]4O)ccc3O[C@H]2CO)ccc1O             active
5   CC(C)(OCc1nn(Cc2ccccc2)c2ccccc12)C(=O)O           inactive
6  COc1cc2ncn(-c3cc(OCc4ccccc4S(C)(=O)=O)c(C#N)s3)c2cc1OC           inactive
7  O=C(O)C1=NC(C(=O)O)CC(C=CN2c3cc(O)c(OC4OC(CO)C(O)C(O)C4O)cc3CC2C(=O)O)=C1 (centres undefined)           inactive
8  O=S(=O)(NCCNCC=Cc1ccc(Br)cc1)c1cccc2cnccc12             active
9  CNC(=O)c1ccc2c(C(=Nc3cccc(CN(C)C)c3)c3ccccc3)c(O)[nH]c2c1             active

----------
System: CP335
measurement.notes: qHTS profiling for inhibitors of Plasmodium falciparum proliferation (AID 504749); also: nearly all actives have a fitted effect of over 60% in size
particulars: P. falciparum in erythrocytes, SYBR Green DNA, 72 h; series mostly up to 28.7 µM
Results filed as inconclusive are left out. Active and inactive are the calls of the source. Calls follow the shape of the dose curve; as a rule, active = well fitted inhibition curve with a large enough effect; inconclusive = small, poorly fitted or top-dose-only effect; inactive = flat fitted curve, though single readings scatter.
Classes used: active, inactive

> print(dat)
                                   compound  assigned.category
1  COc1ccnc(CS(=O)c2nc3ccc(OC(F)F)cc3[nH]2)c1OC (configuration not stated)           inactive
2  COc1c(C)c2c(c(O)c1CC=C(C)CCC(=O)OCCN1CCOCC1)C(=O)OC2             active
3  Cc1cc2nc3c(=O)[nH]c(=O)nc-3n(CC(O)C(O)C(O)CO)c2cc1C (configuration not stated)           inactive
4  COc1cc2c(cc1OC)CC(=O)N(CCCN(C)C[C@H]1Cc3cc(OC)c(OC)cc31)CC2           inactive
5  Fc1ccc(C(c2ccc(F)cc2)N2CCN(CC=Cc3ccccc3)CC2)cc1             active
6  CN1CC(=O)N2C(Cc3c([nH]c4ccccc34)[C@H]2c2ccc3c(c2)OCO3)C1=O (some centres not stated)           inactive
7  N#Cc1c(N(CC(=O)O)CC(=O)O)sc(C(=O)O)c1CC(=O)O           inactive
